Target: DCAF1 WD40 domain (residues 1077-1390) (Homo sapiens)
Construct: DCAF1 WD40 domain (residues 1077-1390)
Sequence (Q9Y4B6 1077-1390): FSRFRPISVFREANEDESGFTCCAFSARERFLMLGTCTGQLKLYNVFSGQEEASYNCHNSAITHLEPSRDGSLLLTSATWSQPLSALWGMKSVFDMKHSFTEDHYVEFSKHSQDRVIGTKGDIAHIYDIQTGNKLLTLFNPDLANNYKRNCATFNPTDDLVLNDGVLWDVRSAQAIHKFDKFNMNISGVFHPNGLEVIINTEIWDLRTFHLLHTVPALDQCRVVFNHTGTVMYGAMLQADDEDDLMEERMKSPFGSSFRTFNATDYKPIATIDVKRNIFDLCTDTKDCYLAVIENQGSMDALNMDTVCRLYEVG
Assay: DCAF1 binding assay by SPR (Biacore 8K+), DCAF1-3 KD
Details: 25 °C, read-out: DCAF1-3 SPR (KD)
quantityMeasured: Kd

Illustrative cases are given below, each with its answer.
Cc1sc2c(c1C)C(c1ccc(Cl)cc1)=N[C@@H](CC(=O)NCCOCCOCCOCCOCCOCCn1cc(C(=O)N[C@@H](CC(N)=O)c3cccc(Cl)c3)c(-c3ccccc3F)n1)c1nnc(C)n1-2 [I-489] | 100 to 200 µM
NCCOCCOCCOCCOCC(=O)c1[nH]cc(C(=O)N[C@@H](CC(N)=O)c2cccc(Cl)c2)c1-c1ccccc1F [I-674] | < 10 µM

Documented Kd of CCCCN1CCN(c2ccnc(NC3CCCN(c4cccc(F)c4)C3)n2)CC1 (centres unmarked) [I-26] : > 200 µM

Documented Kd of CS(=O)(=O)CCc1ccc(F)c(-c2[nH]ncc2C(=O)N[C@H](CC(N)=O)c2cccc(Cl)c2)c1 [I-531] : > 200 µM

Documented Kd of C=CC(=O)Nc1ccnc(N[C@@H]2CCCN(c3cccc(F)c3)C2)c1 [I-447] : 10 to 100 µM

Documented Kd of C=CC(=O)N1CCC1C(=O)N1CCN(c2ccnc(N[C@@H]3CCCN(c4cccc(F)c4)C3)c2)CC1 (some centres unmarked) [I-464] : > 200 µM

Documented Kd of Fc1cccc(N2CCC[C@@H](Nc3ncc(N4CCOCC4)o3)C2)c1 [I-327] : > 200 µM

Documented Kd of Fc1cccc(N2CCC[C@@H](Nc3cc(C4CCOCC4)ccn3)C2)c1 [I-92] : > 200 µM

Documented Kd of Cc1cccc(F)c1-c1c(C(=O)N[C@@H](CC(N)=O)c2cccc(Cl)c2)c[nH]c1C(=O)c1ccccn1 [I-699] : < 10 µM

Documented Kd of Cc1sc2c(c1C)C(c1ccc(Cl)cc1)=N[C@@H](CC(=O)N(C)CCOCCOCCOCCOCCOCC(=O)c1[nH]cc(C(=O)N[C@@H](CC(N)=O)c3cccc(Cl)c3)c1-c1ccccc1F)c1nnc(C)n1-2 [I-900] : < 10 µM

Documented Kd of OC[C@H]1C[C@H](Nc2cc(N3CCCCC3)ccn2)CN(c2cccc(F)c2)C1 [I-1012] : 10 to 100 µM

Documented Kd of N#Cc1nccc(N2CCC[C@@H](Nc3cc(N4CCOCC4)ccn3)C2)n1 [I-414] : > 200 µM

Documented Kd of O=C(Nc1ccccc1)NC1CCCN(C(=O)N2CCC=C(F)C2)C1 (centres unmarked) [I-85] : > 200 µM

Documented Kd of OC[C@@H]1CC[C@@H](Nc2cc(N3CCCCC3)ccn2)CN1c1cccc(F)c1 [I-995] : 10 to 100 µM

Numbers sourced from patent US20260373266A1.
